Consider the following molecules; for each one, report its TGI.
Tested on: M14 melanoma
EXPERIMENTAL PROTOCOL: NCI tumour cell line growth inhibition, 48 h

TGI reported for this molecule COc1ccc2nc3cc(Cl)ccc3c(Sc3ccccc3[N+](=O)[O-])c2c1 : > 100 µM

The recorded TGI for entry NC1CCC(Nc2nc(NCc3ccc(-c4ccco4)nc3)c3ncn(C4CCCC4)c3n2)CC1 (stereo not given) equals 0.193 µM

Record CCNC1C2(CCCCC2)NC(=O)C12CCCCC2 (stereo not given) , field TGI: > 100 µM

Looking up O=C(O)C(Cc1ccccc1)N1C(=O)N/C(=C\c2ccc(F)cc2)C1=O (stereo not given) , I found its TGI recorded as > 100 µM

The molecule COc1ccc(/C=C\c2cc(OC)c3c(c2)OCO3)c(O)c1O showed TGI equal to 11.7 µM

Per the record, CSc1ccc(/C=C2\CN(C)C/C(=C\c3ccc(SC)cc3)C2=O)cc1 has TGI of > 100 µM

The reported value for Oc1ccc(Cl)cc1-c1cc(-c2ccccc2Cl)[nH]n1 in terms of TGI is > 100 µM

Entry CC1CN1P1(N2CC2C)=NP(N2CC2C)(N2CC2C)=NP(N2CC2C)(N2CC2C)=N1 (stereo not given) ; TGI = > 50 µM

C1=CC2(C=CC13O[C@H](C1CCCCC1)[C@@H](C1CCCCC1)O3)O[C@H](C1CCCCC1)[C@@H](C1CCCCC1)O2 has a reported TGI of > 50 µM

Recorded TGI (molecule Cc1ccc(N=N/C(=N/NC(=O)c2cc(Cl)ccc2O)c2ccc(N(CCC#N)CCC#N)cc2C)cc1 ): > 100 µM

---

Tested on: COLO 205 colon
EXPERIMENTAL PROTOCOL: NCI tumour cell line growth inhibition, 48 h; in the data active = GI50 below about 0.43 µM; inactive = the rest
Please state which outcome applies, choosing from y (active), n (inactive)

Please let me know the test result on file for COC(=O)[C@@H](C)C[C@H](Cc1ccc(F)cc1)NC(=O)c1csc([C@@H](C[C@H](C(C)C)N(C)C(=O)[C@@H](NC(=O)[C@H]2CCCCN2C)C(C)C)OC(C)=O)n1 .
y

Give the logged outcome of this assay for the following molecule: O=C1c2cccnc2-c2nc(-c3ccccc3[N+](=O)[O-])cc3c2c1nc1ccccc13
n

In this assay, the call recorded for COc1c2ccoc2c(/C=C/C=O)c2oc(-c3ccccc3)cc(=O)c12 was what?
n

// param item: CC1=C(C#N)C23C(=O)c4ccccc4C(O)=C2C(=O)C=CC3(O)N1Cc1ccccc1 (stereo unspecified) ; yields the recorded call
n

Hi, do you know how CC(=O)[O][Hg][c]1c(N)c(C)cc(C)c1F came out in this test?
n

For CC(C)c1ccc(C(C)C(=O)N(CC2=C(C(C)c3ccccn3)c3ccccc3C2)C(C)C)cc1 (stereo unspecified) , which call appears in the assay record?
n

// param item: COC(=O)Nc1nc2ccc(S(=O)c3ccccc3)cc2[nH]1 (stereo unspecified) ; yields the recorded call
n

Call for entry COc1cc2c(c(OC)c1O)C(=O)C(OC)C(c1ccc(O)c(O)c1)O2 (stereo unspecified) :
n

Hello, I am checking results. What call was entered for C[C@@H](CS(C)(=O)=O)Nc1ncc2cc(Oc3ccc(F)cc3F)c(=O)n(C)c2n1 ?
n

In this assay, the call recorded for Fc1ccc(Nc2ncnc3ccc(-c4cnc5[nH]ccc5c4)cc23)cc1Cl was what?
n

Identify the outcome logged in this assay for the molecule shown: NC1CCC(Nc2nc(NCc3ccc(-c4ccco4)nc3)c3ncn(C4CCCC4)c3n2)CC1 (stereo unspecified)
y

What classification did COc1ccc2c(c1)C(=O)/C(=C/c1ccc(OCC(=O)Nc3nccs3)cc1)O2 end up with in this test?
n

Name the outcome recorded for CCOc1ccccc1-n1c(CN2CCN(C(=O)COc3ccc(CNCCCCCCN4C5CCCC4CC(OC(=O)Nc4cc(C)ccc4OC)C5)cc3)CC2)nc2ccccc2c1=O (stereo unspecified) in the assay.
n

Identify the outcome logged in this assay for the molecule shown: O=c1n(CC2CO2)c(=O)n(CC2CO2)n1CC1CO1 (stereo unspecified)
n

What call does the record list for O=C(Nc1ccc(F)cc1F)c1cc(I)ccc1O ?
n

Hey, what did the test say about COc1ccc(C2=CSc3cc(Cl)c(C)cc3S(=O)(=O)N2C(C)=O)cc1 ?
n

---

For each entry below, report its TGI value.
System: CAKI-1 renal
EXPERIMENTAL PROTOCOL: NCI tumour cell line growth inhibition, 48 h

Record C[C@@H](CS(C)(=O)=O)Nc1ncc2cc(Oc3ccc(F)cc3F)c(=O)n(C)c2n1 . Reported TGI: > 25 µM

Form: molecule = NC(=O)c1ccc(C(=O)Nc2ccc([As](=O)(O)O)cc2)cc1 ; TGI = > 100 µM

Quick note, TGI for CCOC(=O)COc1cccc2c1C(=O)CCO2 landed at > 100 µM

Value of TGI reported for the molecule COc1ccc(C2=CSc3cc(Cl)c(C)cc3S(=O)(=O)N2C(C)=O)cc1 is 32.9 µM

Input N/C(=N\N=C/c1ccc(O)c(O)c1O)NO . Output TGI: 55.3 µM

Given item Nc1cc2nc3ccccc3sc-2cc1=O , the value recorded as its TGI is 22.1 µM

COc1cccc(NC(=O)CC(=O)n2nc(C)c(N=Nc3ccccc3)c2C)c1 yielded TGI of > 100 µM

Record CC1=C(C(=O)Nc2ccc(F)c(Cl)c2)C(c2ccc(Cl)cc2)NC(=O)N1 (stereo not drawn) . Reported TGI: 71.2 µM

Lab note: COc1cc(/C=C/c2cc(/C=C/c3ccc(O)c(OC)c3)n(C(=O)Nc3ccc(F)cc3)n2)ccc1O gave TGI of 49.5 µM

Lookup result for CSC(=N/C=C/c1ccccc1)SC ; measured TGI: > 100 µM

For record COc1ccc2nc3cc(Cl)ccc3c(Sc3ccccc3[N+](=O)[O-])c2c1 the listed TGI is > 100 µM

Entry CC[C@@]12CCCN3CC[C@]4(c5cccc(OC)c5N(C(C)=O)[C@@H]4CC1)[C@H]32 — recorded TGI = > 100 µM

TGI measured on CS(=O)(=O)OCCCCOS(=O)(=O)CF = > 100 µM

So for COc1c2c(cc3c1C(=O)c1c(O)cccc1C3=O)CC(O)CC2 (stereo not drawn) , the logged TGI turned out to be > 100 µM

Summary for this molecule, COc1ccc(N2CN3OC(=O)N(c4ccc(OC)cc4)[C@@]3(c3ccccc3)C2)cc1 : TGI is > 100 µM

# molecule NC(N)=Nc1ccc(-c2ccc(N=C(N)N)cc2)cc1 ; its TGI = > 100 µM

Just so you know, measured TGI for C=C(CNCCO)[C@@H]1CC[C@]2(CO)CC[C@]3(C)[C@H](CC[C@@H]4[C@@]5(C)CCC(N)C(C)(C)[C@@H]5CC[C@]43C)[C@@H]12 (stereo partly drawn) came out at 18.1 µM

Lookup result for COc1ccc(NC(=O)c2cc(OC)cc(OC)c2)cc1 ; measured TGI: > 100 µM

Briefly, TGI measured for CCOc1ccccc1-n1c(CN2CCN(C(=O)COc3ccc(CNCCCCCCN4C5CCCC4CC(OC(=O)Nc4cc(C)ccc4OC)C5)cc3)CC2)nc2ccccc2c1=O (stereo not drawn) : 3.06 µM

Sample COc1c2ccoc2c(/C=C/C=O)c2oc(-c3ccccc3)cc(=O)c12 ; TGI observed: > 100 µM

The molecule listed as COc1cc2c(cc1OC)[C@@H]1[C@H](C#N)C(=O)C(C)(C)N1CC2 shows TGI equal to > 100 µM

# TGI (molecule: Cc1c(-c2ccc(O)cc2)n(CCCCCCNCCOC(=O)NCCCc2ccc(N(CCCl)CCCl)cc2)c2ccc(O)cc12 ) is 25.7 µM

The measured TGI associated with COc1cc2cnc3c4cc(OC(C)C)c(OC)cc4ccc3c2cc1OC reads > 100 µM

Reported TGI of CCN(CC)c1ccc2cc(C(N)=O)c(=N)oc2c1 : > 100 µM

// sample CC(=O)[O][Hg][c]1c(N)c(C)cc(C)c1F , its TGI was 12.4 µM

Item: CCOC(=O)C(Sc1ccccc1)c1c(OC)cc(=O)oc1/C=[N+](/[O-])c1ccc(N(C)C)cc1 (stereo not drawn) | TGI: 32.1 µM

TGI reported for this molecule COc1cc(C(=O)/C=C/c2sc(Cl)nc2Cl)cc(OC)c1OC : 2.99 µM

Entry CC1OC(OC2C(OC(=O)[C@]34CCC(C)(C)C[C@H]3C3=CC[C@@H]5[C@@]6(C)CC[C@H](OC7OC(C(=O)O)C(O)C(O)C7O)C(C)(C)[C@@H]6CC[C@@]5(C)[C@]3(C)C[C@H]4O)OCC(O)C2O)C(O)C(O)C1OC1OCC(OC2OCC(O)C(O)C2O)C(O)C1O (stereo partly drawn) ; TGI = 21.6 µM

Value of TGI reported for the molecule CCCCCCCC(=O)SCC/C=C/[C@@H]1CC(=O)NCc2cccc(n2)C2=N[C@@](C)(CS2)C(=O)N[C@@H](C(C)C)C(=O)N1 is > 33.3 µM

Per the record, O=C1c2ccccc2C(=O)c2sc(Nc3cccc(Cl)c3)nc21 has TGI of 4.97 µM

Given item CC1=C(C(=O)Nc2ccccc2C)C(c2ccco2)C(C(=O)Nc2ccccc2C)=C(C)N1C , the value recorded as its TGI is > 100 µM

Reported TGI for CC1(C)CCc2ccc(OCCC(=O)O)cc2O1 was > 100 µM

# TGI of C/C(CCn1[nH]c(=O)ccc1=O)=N\O = > 100 µM
